- Experimental System: T1, human dimeric EGFR (EGFR.mFc) (human)
- T1 construct: Soluble dimeric EGFR construct
- Test Protocol: SPR 37C, mAb captured by anti-human Fc, EGFR.mFc analyte
Metric Name: koff (s⁻¹)
Give the value, in units of s⁻¹, as a plain number.

Field: example entries. Status: answers known.
{"Binder": "H1H169P (antibody, human IgG1, V domains shown, Human IgG1 Fc (H1H)) VH: EVQLVESGGGLVQPGGSLRLSCAASRFTFSTYWMSWVRQAPGKGLEWVAKIKQDGSEKYYLDSVKDRFTISRDNAKNSLYLQMNSLRAEDTAVYYCASSITWYDYYYGMDVWGHGTTVTVSS VL: EIVLTQSPDFQSVTPKEKVTITCRASQSIGSNLHWYQQKPDQSPNLLIKFASQSFSGVPSRFSGSGSGTDFTLTINSLEAEDAATYYCHQTNFLPHTFGGGTKVEIK", "koff (s⁻¹)": "1.69e-05"}
{"Binder": "H1H143P (antibody, human IgG1, V domains shown, Human IgG1 Fc (H1H)) VH: QVQLQESGPGLVMPSQTLSLTCTVSGGSINSGDYYWNWIRQHPGKGLEWIGYIYYSEISYHNPSLKSRVTTSIDTSTNQFSLKLSSVTAADTAVYYCARDRVELRAFDIWGQGTMVTVSS VL: DIQMTQSPSSLSASVGDRVTITCQASQDISNYLNWYQQKPGKAPKLLIYDASNLETGVPSRFSGSGSGTDFTFTISSLQPEDIATYYCQHYDSLPLTFGQGTRLEIK", "koff (s⁻¹)": "1.35e-05"}

Reported koff, binder H1H116N (antibody, human IgG1, V domains shown, Tested in human IgG1 Fc format (H1H); also called H1M116N) VH: QVQLQESGPGLVKPSQTLSLTCTVSGGSVSSGDYYWSWIRQHPGKGLDWIGHIYYSGSTYYNPSLKSRVTISLDTSKNQFSLKLNSVTAADTAVYYCARTAITGTMDYWGQGTLVTVSS VL: EIVMTQSPATLSVSAGERATLSCRASQSVSSNLAWFQQKPGQAPRLLIYDASTRATGIPARFSGSGSGTEFTLIISSLQSEDFALYYCQQYNSWWTFGQGTKVEIK : ____ 3.16e-05

Next record, please: H1H158P (antibody, human IgG1, V domains shown, Human IgG1 Fc (H1H)) VH: QVQLVESGGGVVQPGGSLRLSCAASGFTFSIYGIHWVRQAPGKGLEWVAVISDDGSNKKYADSVKGRFTISRDNSKNTLYLQMNSLRAEDTAIFYCAKDRITGTHYYGMDVWGQGTTVTVSS VL: DIQMTQSPSSLSASVGDRVSITCRASQDISNYLAWFQQKPGKAPKSLIYAASSLQSGVPSKFSGSGSGIEFTLTISSLQPEDFSTYYCHQYNRFPWTFGQGTKVEIK 9.84e-06

Next record, please: H1H144P (antibody, human IgG1, V domains shown, Human IgG1 Fc (H1H)) VH: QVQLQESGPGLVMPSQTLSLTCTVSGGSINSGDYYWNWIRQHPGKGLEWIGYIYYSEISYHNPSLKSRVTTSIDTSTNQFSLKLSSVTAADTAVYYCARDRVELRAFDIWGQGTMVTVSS VL: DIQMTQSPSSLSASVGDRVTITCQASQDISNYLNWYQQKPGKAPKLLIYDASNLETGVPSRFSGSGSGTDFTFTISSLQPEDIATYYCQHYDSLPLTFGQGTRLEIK 1.94e-05

Could you do the same for H1H103N (antibody, human IgG1, V domains shown, Tested in human IgG1 Fc format (H1H); also called H1M103N) VH: EVQLVESGGGLVQPGGSLRLSCAASGFTFSSYDMHWVRQTTGKGLEWVSGIGTAGDTYYPGSVKGRFTISREDAKNSLYLQMNSLRAGDTAVYYCARVGYDWNFVAFDYWGQGTLVTVSS VL: DIVMTQSPLSLPVTPGEPASISCRSSQSLLHSNGYNYLDWYLQKPGQSPQLLIHLVSIRASGVPDRFSGSGSGTDFTLKISRVEAEDVGIYYCMQALQTPWTFGQGTKVEIK , please? 4.19e-05
